target: T1, human serum albumin (human, UniProt P02768 25-609); assay: SPR, HSA immobilised;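 note: nanobody analytes injected as dilution series across three log units over CM5 chip with amine-coupled antigen, kinetics fitted by 1:1 Langmuir model, optionally with mass transfer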
T1 construct: In the mutant screen wild type HSA came from medium of transfected HeLa cells; also called HSA; wild type HSA
T1 sequence (P02768 25-609 limits assumed): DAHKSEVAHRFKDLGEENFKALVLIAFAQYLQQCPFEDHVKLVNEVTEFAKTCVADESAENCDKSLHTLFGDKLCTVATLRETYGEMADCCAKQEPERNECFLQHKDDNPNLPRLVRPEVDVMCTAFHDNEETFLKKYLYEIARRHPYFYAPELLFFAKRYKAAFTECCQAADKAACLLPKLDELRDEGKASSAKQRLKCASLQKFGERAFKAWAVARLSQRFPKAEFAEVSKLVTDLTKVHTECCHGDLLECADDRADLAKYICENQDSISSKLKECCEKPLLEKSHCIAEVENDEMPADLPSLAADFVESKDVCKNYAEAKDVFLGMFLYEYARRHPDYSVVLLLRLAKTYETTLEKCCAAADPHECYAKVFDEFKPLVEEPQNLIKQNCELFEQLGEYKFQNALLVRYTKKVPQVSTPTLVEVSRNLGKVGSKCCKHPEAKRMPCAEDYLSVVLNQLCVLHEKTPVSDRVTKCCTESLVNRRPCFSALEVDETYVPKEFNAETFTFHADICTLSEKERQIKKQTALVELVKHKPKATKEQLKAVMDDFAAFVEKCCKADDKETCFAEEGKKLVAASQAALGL

Binder: H25 (VHH) VHH: DVQLVESGGGLVQAGGSLRLSCAASGRTISDYGMAWFRQAPGKEREFVGVITSNSVTTYYADSVKGRFTISRDNTKNTVYLQMISLKPEDTAIYYCAARIPVGFYYNARNYDFWGQGTQVTVSS
kon: 936000 M⁻¹ s⁻¹
--
Binder: H28 (VHH, also called N28) VHH: DVQLVESGGGLAQAGGSLRLSCAASGRTFSNECMGWFRQAPGKEREFVATIRSTGHISYATSVQGRFTVSRDIAKNTVYLEMNNLKPEDTAVYSCGAGVSDYGCYRTSGYNYWGQGTQVTVSS
kon: 5.24e+06 M⁻¹ s⁻¹
--
Binder: H21 (VHH) VHH: QVQLVESGGGLVQAGGSLRLSCAASGYTSGNDAMGWFRQAPGKEREFVGAIRWSGVSTYYADSVKGRFTISRDGAKNTLYLQMNSLKPEDTAVYYCAAKFTGSAWYGVQKLESTYWDYWGQGTQVTVSS
kon: 683000 M⁻¹ s⁻¹
--
Binder: H7 (VHH) VHH: DVQLVESGGGSVQAGGSLRLSCAASGGTFSSYAMGWYRQAPGKEREFVSGISWSGSSIDYVDSVKGRFTISRDNAKNTVYLQMNSLKPEDTAVYYCGAADPMGLGYGLGPRPVDRLLSAECDYWGQGTQVTVSS
kon: 93500 M⁻¹ s⁻¹
--
Binder: H3 (VHH) VHH: QVQLVESGGGLVQAGGSLRLSCVASGRTFEPFVMGWFRQAPGKEREFVATISWSGGSLSYADSVKGRFTVSRDNAKNTVYLQMNSLKPEDTAVYYCAAAPGVGNYRYTFQYDYWGQGTQVTVSE
kon: 1.11e+06 M⁻¹ s⁻¹
--
Binder: H16 (VHH) VHH: QVQLVESGGGLVQTGGSLTLSCAASGRTFSTKSMGWFRQAPGKEREFVADINWNGGITHYADSVEGRFTISRDNANDMVYLQMNSLKPEDTAVYYCAGGRYSTLFSKSEADYDYWGQGTQVTVSS
kon: 1.34e+06 M⁻¹ s⁻¹
--
Binder: H11 (VHH) VHH: QVQLVESGGGLVQVGGSLRLSCAASGRTFSNYVMGWFRQAPGKEREFVAYIHWSGSSTSYADSVKGRFTISRDNTKNTMYLQMNSLKPEDTAVYYCTADQYASTLLRAAGEYWGQGTQVTVSS
kon: 255000 M⁻¹ s⁻¹
--
Binder: H30 (VHH) VHH: HVQLVESGGGLAQAGGSLRLSCAASGGTFSNSCMGWFRQAPGMEREFVAIIRSTGHTTYADSVEGRFTVSRDIAKNTVYLEMNSLKPEDTAVYSCVAGVSDYGCYRTSGIKYWGQGTQVTVSS
kon: 1.03e+06 M⁻¹ s⁻¹
--
Binder: H2 (VHH) VHH: QVQLVESGGGLVQAGGSLRLSCTASGRTFTPYTIGWFRQAPGKEREFVASILWSGINTDYADSVKGRFAISRDNAKNAAYLQMSNLKPEDTAVYYCATGGGLGYYRSVSQYDYWGQGTQVTVSE
kon: 234000 M⁻¹ s⁻¹
